The binders listed here are annotated with their MFI.
Biological target: T1, cynomolgus TIM-3 on isolated cyno CD14+ monocytes (cynomolgus)
T1 construct: whole, on cells
Test: flow cytometry, cyno CD14+ monocytes cyno3
endpoint label: MFI (MFI)

[[record]]
binder = "Tim3_0021 (antibody, V domains shown) VH: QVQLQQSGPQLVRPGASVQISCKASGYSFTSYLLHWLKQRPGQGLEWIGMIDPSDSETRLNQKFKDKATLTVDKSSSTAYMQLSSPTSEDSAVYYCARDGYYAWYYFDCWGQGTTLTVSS VL: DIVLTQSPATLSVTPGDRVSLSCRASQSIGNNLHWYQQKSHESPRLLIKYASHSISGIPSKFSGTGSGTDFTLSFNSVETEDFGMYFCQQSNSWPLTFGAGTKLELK"
recorded_number = 399

[[record]]
binder = "Tim3_0022 (antibody, V domains shown) VH: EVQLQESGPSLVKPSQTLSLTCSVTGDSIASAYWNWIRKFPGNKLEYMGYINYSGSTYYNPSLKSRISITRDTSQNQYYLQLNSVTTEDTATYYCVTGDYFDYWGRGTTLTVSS VL: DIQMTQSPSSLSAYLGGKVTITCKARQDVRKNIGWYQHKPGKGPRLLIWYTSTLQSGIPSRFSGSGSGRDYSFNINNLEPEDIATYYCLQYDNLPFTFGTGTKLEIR"
recorded_number = 138

[[record]]
binder = "Tim3_0016 variant (Tim3_0018) (antibody, V domains shown, also called TIM3-0016 variant (0018); aTim3 0018) VH: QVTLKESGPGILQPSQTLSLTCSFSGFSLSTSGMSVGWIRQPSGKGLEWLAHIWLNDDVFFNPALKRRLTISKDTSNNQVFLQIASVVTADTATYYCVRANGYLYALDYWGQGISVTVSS VL: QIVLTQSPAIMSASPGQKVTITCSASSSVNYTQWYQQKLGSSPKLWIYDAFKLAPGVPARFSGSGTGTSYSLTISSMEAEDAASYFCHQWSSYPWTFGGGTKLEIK"
recorded_number = 417

[[record]]
binder = "Tim3_0038 (antibody, V domains shown) VH: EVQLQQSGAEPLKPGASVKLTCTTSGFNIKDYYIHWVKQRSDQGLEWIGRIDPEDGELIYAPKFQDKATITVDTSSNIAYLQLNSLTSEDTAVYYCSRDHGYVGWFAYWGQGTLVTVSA VL: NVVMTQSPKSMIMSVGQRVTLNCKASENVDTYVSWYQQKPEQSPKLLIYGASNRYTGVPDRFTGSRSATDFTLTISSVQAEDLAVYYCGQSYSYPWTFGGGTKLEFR"
recorded_number = 120

